target_under_test: 3',5'-cyclic-AMP phosphodiesterase 4B (Homo sapiens)
experimental_protocol: qHTS Assay for Inhibitors of PDE-IV (AID 607)
experimental_context: HEK293 ACTOne CNG channel cells, membrane potential fluorescence; series mostly up to 22.9 µM
Results filed as inconclusive are left out. Activity calls are given as the source filed them. The call rests on the fitted dose curve; in most records, active means well fitted activation curve with a large enough effect in the main read-out, with a control signal flat (not every such curve was filed as active); inconclusive means small, poorly fitted or top-dose-only effect, or effect the other way, or a change in a side signal; inactive means flat fitted curve, though single readings scatter.
measured_metric: outcome

Observe how each entry below is paired with its result.
[[record]]
smiles_structure = "CC(=O)N1CCC2(CC1)CN(Cc1cc(C(F)(F)F)cc(C(F)(F)F)c1)C2"
target_under_test = "3',5'-cyclic-AMP phosphodiesterase 4B (Homo sapiens)"
reported_result = "inactive"

[[record]]
smiles_structure = "O=C(c1csnn1)N1CCC2(CC1)CCN(c1ccncc1)CC2"
target_under_test = "3',5'-cyclic-AMP phosphodiesterase 4B (Homo sapiens)"
reported_result = "inactive"

[[record]]
smiles_structure = "COc1cccc(Nc2ncc3nc(-c4ccc(Cl)cc4)c(=O)n(CCC#N)c3n2)c1"
target_under_test = "3',5'-cyclic-AMP phosphodiesterase 4B (Homo sapiens)"
reported_result = "inactive"

[[record]]
smiles_structure = "CC(=O)NCCNc1ncncc1-c1ccccc1C(F)(F)F"
target_under_test = "3',5'-cyclic-AMP phosphodiesterase 4B (Homo sapiens)"
reported_result = "inactive"

[[record]]
smiles_structure = "COc1ccc(C(=O)N2CCC[C@@]3(CCN(CC(C)C)C3)C2)cc1"
target_under_test = "3',5'-cyclic-AMP phosphodiesterase 4B (Homo sapiens)"
reported_result = "inactive"

[[record]]
smiles_structure = "COCCn1c(=O)c(-c2ccc(F)cc2)nc2cnc(Oc3ccc(OC)cc3)nc21"
target_under_test = "3',5'-cyclic-AMP phosphodiesterase 4B (Homo sapiens)"
reported_result = "inactive"

[[record]]
smiles_structure = "COc1cccc(-c2nc(N3CCNCC3)c3ccccc3n2)c1"
target_under_test = "3',5'-cyclic-AMP phosphodiesterase 4B (Homo sapiens)"
reported_result = "inactive"

[[record]]
smiles_structure = "O=S(=O)(c1ccccc1)N1CCC2(CCCN(Cc3ccncc3)C2)CC1"
target_under_test = "3',5'-cyclic-AMP phosphodiesterase 4B (Homo sapiens)"
reported_result = "inactive"

[[record]]
smiles_structure = "O=C(c1cccc(F)c1)N1CCC2(CC1)CCN(C(c1ccccc1)c1ccccc1)CC2"
target_under_test = "3',5'-cyclic-AMP phosphodiesterase 4B (Homo sapiens)"
reported_result = "inactive"


Q: Field request: outcome | item: Cc1noc(C)c1C(=O)N1CCC2(CCN(Cc3ccccc3)CC2)CC1
Ans: inactive

---

target_under_test: 3',5'-cyclic-AMP phosphodiesterase 4B (Homo sapiens) (UniProt Q07343)
Sequence (Q07343 whole entry, looked up): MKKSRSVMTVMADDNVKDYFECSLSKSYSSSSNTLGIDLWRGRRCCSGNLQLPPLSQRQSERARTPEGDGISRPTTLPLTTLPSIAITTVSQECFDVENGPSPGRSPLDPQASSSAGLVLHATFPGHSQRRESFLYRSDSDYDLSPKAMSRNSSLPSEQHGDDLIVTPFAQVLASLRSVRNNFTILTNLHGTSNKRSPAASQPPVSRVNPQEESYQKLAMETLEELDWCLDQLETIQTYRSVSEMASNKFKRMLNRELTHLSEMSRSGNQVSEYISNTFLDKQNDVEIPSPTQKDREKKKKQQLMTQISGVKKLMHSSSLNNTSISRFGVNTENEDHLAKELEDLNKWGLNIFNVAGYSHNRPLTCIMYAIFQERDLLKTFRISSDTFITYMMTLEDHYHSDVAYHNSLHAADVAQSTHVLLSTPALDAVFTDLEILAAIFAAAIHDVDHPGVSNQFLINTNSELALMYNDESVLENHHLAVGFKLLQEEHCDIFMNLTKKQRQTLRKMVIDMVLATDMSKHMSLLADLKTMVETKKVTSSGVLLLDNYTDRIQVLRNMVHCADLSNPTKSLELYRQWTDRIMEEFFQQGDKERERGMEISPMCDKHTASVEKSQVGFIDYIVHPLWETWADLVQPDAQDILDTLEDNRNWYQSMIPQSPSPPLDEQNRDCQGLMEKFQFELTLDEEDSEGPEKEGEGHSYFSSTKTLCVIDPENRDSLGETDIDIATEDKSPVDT
experimental_protocol: qHTS Assay for Inhibitors of PDE-IV (AID 607)
experimental_context: HEK293 ACTOne CNG channel cells, membrane potential fluorescence; series mostly up to 22.9 µM
Inconclusive results are not listed. Activity calls are given as the source filed them. Calls follow the shape of the dose curve; as a rule, active = well fitted activation curve with a large enough effect in the main read-out, with a control signal flat (not every such curve was filed as active); inconclusive = small, poorly fitted or top-dose-only effect, or effect the other way, or a change in a side signal; inactive = flat fitted curve, though single readings scatter.
Could you please pick one outcome from this set? t = active, f = inactive

Check out these entries, answers already filled in.
[[record]]
smiles_structure = "N#Cc1cccc(NC(=O)N2CC3(CCN(C(=O)c4ccco4)CC3)C2)c1"
class_name = "f"

[[record]]
smiles_structure = "COc1ncc2ncc(=O)n(C3CC3)c2n1"
class_name = "t"

[[record]]
smiles_structure = "COc1ccc(-n2c(=O)c(-c3cccs3)nc3cnc(Nc4ccccc4)nc32)cc1"
class_name = "f"

[[record]]
smiles_structure = "CN(C)Cc1ccccc1-c1cc(NCc2cccs2)ncn1"
class_name = "f"

[[record]]
smiles_structure = "O=C(c1ccncc1)N1CCC2(CCCN(c3ncccn3)C2)CC1"
class_name = "f"


Query molecule follows.
Q: # lookup: test call for O=C(c1ccncc1)N1CCC[C@@]2(CCN(Cc3cc(C(F)(F)F)cc(C(F)(F)F)c3)C2)C1
Ans: f

---

experimental_protocol: NFAT Signaling Pathway (AID 444);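 further: carbachol stimulus at about its EC50 of 1 µM final; on the % scale 0 is the no-effect control and ±100 the full control effect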
experimental_context: Jurkat NFAT-bla M1, carbachol, beta-lactamase ratio, 5 h; at 7.69 µM (top of the series) unless noted
Records with an inconclusive call do not appear. Calls of active or inactive are those of the source. Calls follow the shape of the dose curve; as a rule, active = well fitted curve in either direction with a large enough effect (not every such curve was filed as active); inconclusive = small, poorly fitted or top-dose-only effect, or another doubt; inactive = flat fitted curve, though single readings scatter.
measured_metric: activity change, negative = inhibition

[[record]]
smiles_structure = "COc1cccc(-c2cc(NCc3cccc(C)c3)ncn2)c1"
reported_result = "-3.2% (inactive)"

[[record]]
smiles_structure = "N#Cc1cccc(-c2ccc3ncnc(NCCN4CCOCC4)c3c2)c1"
reported_result = "19.4% (inactive)"

[[record]]
smiles_structure = "COc1ccc(C[C@@H]2c3cc(OC)c(OC)cc3CC[N@+]2(C)CCC(=O)OCCCCCOC(=O)CC[N@@+]2(C)CCc3cc(OC)c(OC)cc3[C@H]2Cc2ccc(OC)c(OC)c2)cc1OC"
reported_result = "-23.4% [at 17.2 µM] (inactive)"

[[record]]
smiles_structure = "CCNc1ncc2nc(-c3ccc(F)cc3)c(=O)n(C)c2n1"
reported_result = "-26% (inactive)"

[[record]]
smiles_structure = "CN1CCN(c2ncc3nc(-c4cccc(C#N)c4)c(=O)n(CCC#N)c3n2)CC1"
reported_result = "17.8% (inactive)"


Q: Field request: activity change, negative = inhibition | item: COc1ccc(CNc2ccnc(-c3ccccc3OC)n2)c(OC)c1
Ans: -9.22% (inactive)

Q: Field request: activity change, negative = inhibition | item: Cc1noc(C)c1-c1nccc(N2CCNCC2)n1
Ans: -5.44% (inactive)

Q: Field request: activity change, negative = inhibition | item: Cc1ccccc1-c1nc(N(C)Cc2ccco2)c2ccccc2n1
Ans: -24% (inactive)

Q: Field request: activity change, negative = inhibition | item: O=c1c(-c2cccc(F)c2)nc2cncnc2n1Cc1ccccc1Cl
Ans: -7.87% (inactive)

Q: Field request: activity change, negative = inhibition | item: c1cncc(CNc2ccnc(-c3cccnc3)n2)c1
Ans: 10.2% (inactive)

---

experimental_protocol: qHTS Assay for Lipid Storage Modulators (AID 1519); further: on the % scale 0 is the no-effect control and ±100 the full control effect
experimental_context: Drosophila S3 cells, BODIPY lipid droplet/cell ratio, laser cytometry; at 57.5 µM (top of the series); cells loaded with oleic acid
Results filed as inconclusive are left out.
measured_metric: activity change, negative = inhibition (%)
Give just the number in %; leave the unit off.

Observe how each entry below is paired with its result.
[[record]]
smiles_structure = "O=C(c1cccc(F)c1)N1CCC2(CC1)CCN(C(c1ccccc1)c1ccccc1)CC2"
measured_metric = "activity change, negative = inhibition"
reported_result = 4.65

[[record]]
smiles_structure = "N#Cc1ccc(CN2CCC3(CC2)CCN(C(=O)c2cc(C(F)(F)F)cc(C(F)(F)F)c2)CC3)cc1"
measured_metric = "activity change, negative = inhibition"
reported_result = 1.9

[[record]]
smiles_structure = "Cn1c(=O)c(-c2ccc(F)cc2)nc2cnc(OCc3ccccc3)nc21"
measured_metric = "activity change, negative = inhibition"
reported_result = 5.66

[[record]]
smiles_structure = "O=c1c(-c2ccccc2)nc2cnc(Oc3cccc(Cl)c3)nc2n1C[C@H]1CCCO1"
measured_metric = "activity change, negative = inhibition"
reported_result = -16.5

[[record]]
smiles_structure = "O=C(c1ccncc1)N1CCC2(CCCN(Cc3nccs3)C2)CC1"
measured_metric = "activity change, negative = inhibition"
reported_result = 6


Q: Field request: activity change, negative = inhibition | item: COc1ccc(CNc2ncncc2-c2ccccc2Cl)c(OC)c1
Ans: 5.27

Q: Field request: activity change, negative = inhibition | item: COc1ccccc1-c1ccc2ncnc(NC3CC3)c2c1
Ans: -9.29

---

Test system: JCK
experimental_protocol: qHTS profiling for inhibitors of Plasmodium falciparum proliferation (AID 504749); further: nearly all actives have a fitted effect of over 60% in size
experimental_context: P. falciparum in erythrocytes, SYBR Green DNA, 72 h; series mostly up to 12.8 µM
Inconclusive results are not listed. Calls of active or inactive are those of the source. The call rests on the fitted dose curve; in most records, active means well fitted inhibition curve with a large enough effect; inconclusive means small, poorly fitted or top-dose-only effect; inactive means flat fitted curve, though single readings scatter.
Could you please pick one outcome from this set? active, inactive

[[record]]
compound = "CN(C)[C@H]1C(=O)C(C(=O)NCN2CCCC2)=C(O)[C@]2(O)C(=O)C3=C(O)c4c(O)cccc4[C@@](C)(O)[C@H]3C[C@@H]12"
target_under_test = "JCK"
class_name = "inactive"

[[record]]
compound = "COc1c(O)cc2c(c1O)[C@@H]1O[C@@H](CO)[C@@H](O)[C@@H](O)[C@@H]1OC2=O"
target_under_test = "JCK"
class_name = "inactive"

[[record]]
compound = "O=c1[nH]cnc2c1ncn2C1OC(CO)C(O)C1O (stereo unspecified)"
target_under_test = "JCK"
class_name = "inactive"

[[record]]
compound = "NC(=O)c1cc[n+](CC2=C(C(=O)O)N3C(=O)[C@@H](NC(=O)[C@H](c4ccccc4)S(=O)(=O)[O-])[C@@H]3SC2)cc1"
target_under_test = "JCK"
class_name = "active"

[[record]]
compound = "O=C(c1ccccc1)c1ccc2n1CC[C@H]2C(=O)O"
target_under_test = "JCK"
class_name = "inactive"

[[record]]
compound = "O=c1[nH]c(=O)n([C@@H]2C[C@H](O)[C@H](CO)O2)cc1I"
target_under_test = "JCK"
class_name = "inactive"

[[record]]
compound = "CC(=O)O[C@@H](C)C[N+](C)(C)C"
target_under_test = "JCK"
class_name = "inactive"

[[record]]
compound = "CC(=O)N(CC(O)CN(C(C)=O)c1c(I)c(C(=O)NC[C@@H](O)CO)c(I)c(C(=O)NC[C@@H](O)CO)c1I)c1c(I)c(C(=O)NC[C@@H](O)CO)c(I)c(C(=O)NC[C@@H](O)CO)c1I"
target_under_test = "JCK"
class_name = "inactive"

[[record]]
compound = "COc1ccccc1OC[C@H](O)COC(N)=O"
target_under_test = "JCK"
class_name = "inactive"

[[record]]
compound = "CC(C)(C)NC[C@H](O)c1cc(O)cc(O)c1"
target_under_test = "JCK"
class_name = "inactive"


Q: # lookup: test call for C[n+]1ccccc1/C=N\O
Ans: inactive

Q: # lookup: test call for COc1cc(/C=C/C(=O)/C=C(O)/C=C/c2ccc(O)c(OC)c2)ccc1O
Ans: inactive

Q: # lookup: test call for CN1[C@@H]2CC[C@H]1CC(OC(=O)[C@@H](O)c1ccccc1)C2 (stereo partly specified)
Ans: inactive
